Quick list: log10 of IC50 per entry.
biological target: Mitogen-activated protein kinase 14 (Homo sapiens); experiment: Kinase Assay; conditions: 37 °C
Sequence (Q16539 whole entry): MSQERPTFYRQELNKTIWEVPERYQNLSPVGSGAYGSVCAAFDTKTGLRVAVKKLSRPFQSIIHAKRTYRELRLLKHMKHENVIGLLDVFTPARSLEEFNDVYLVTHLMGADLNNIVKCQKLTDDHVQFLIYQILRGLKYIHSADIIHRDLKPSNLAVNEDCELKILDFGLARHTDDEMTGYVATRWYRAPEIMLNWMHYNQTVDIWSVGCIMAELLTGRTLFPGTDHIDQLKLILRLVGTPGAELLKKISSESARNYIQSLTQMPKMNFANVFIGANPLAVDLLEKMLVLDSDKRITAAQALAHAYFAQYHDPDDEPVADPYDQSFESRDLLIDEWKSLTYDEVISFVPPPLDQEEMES
endpoint: log10 of IC50 (log10 of the value in µM)

{"columns": ["compound", "target_desc", "log10 of IC50"],
 "data": [
  ["COc1cc(-c2oc3cc(O)cc(O)c3c(=O)c2O)ccc1O", "Mitogen-activated protein kinase 14 (Homo sapiens)", 1.30],
  ["Oc1cc(O)c2c(c1)O[C@H](c1cc(O)c(O)c(O)c1)[C@@H](O)C2 [(+)-gallocatechin]", "Mitogen-activated protein kinase 14 (Homo sapiens)", 0.55],
  ["O=c1cc(-c2ccc(O)c(O)c2)oc2cc(O)cc(O)c12", "Mitogen-activated protein kinase 14 (Homo sapiens)", 1.26],
  ["COc1ccc(-c2cc(=O)c3c(O)cc(O)cc3o2)cc1", "Mitogen-activated protein kinase 14 (Homo sapiens)", 1.70],
  ["COc1cc(O)c2c(=O)cc(-c3ccc(OC)c(OC)c3)oc2c1 [Luteolin-7,3',4'-trimethylether]", "Mitogen-activated protein kinase 14 (Homo sapiens)", 1.52],
  ["COc1ccc(-c2cc(=O)c3c(O)c(OC)c(O)c(OC)c3o2)cc1 [Nevadensin]", "Mitogen-activated protein kinase 14 (Homo sapiens)", 1.38],
  ["O=c1c(O)c(-c2cc(O)c(O)c(O)c2)oc2cc(O)cc(O)c12", "Mitogen-activated protein kinase 14 (Homo sapiens)", 0.21],
  ["O=c1cc(-c2ccc(O)c(O)c2)oc2c([C@@H]3O[C@H](CO)[C@@H](O)[C@H](O)[C@H]3O)c(O)cc(O)c12 [Luteolin 8-C-glucoside]", "Mitogen-activated protein kinase 14 (Homo sapiens)", 1.75],
  ["COc1ccc([C@@H]2CC(=O)c3c(O)cc(O)cc3O2)cc1O", "Mitogen-activated protein kinase 14 (Homo sapiens)", 1.74]
]}

* * *

Reported pIC50 by item:
target: Mitogen-activated protein kinase 10 (Homo sapiens, UniProt P53779); test: Kinase Assay; conditions: 37 °C
Sequence (P53779 whole entry): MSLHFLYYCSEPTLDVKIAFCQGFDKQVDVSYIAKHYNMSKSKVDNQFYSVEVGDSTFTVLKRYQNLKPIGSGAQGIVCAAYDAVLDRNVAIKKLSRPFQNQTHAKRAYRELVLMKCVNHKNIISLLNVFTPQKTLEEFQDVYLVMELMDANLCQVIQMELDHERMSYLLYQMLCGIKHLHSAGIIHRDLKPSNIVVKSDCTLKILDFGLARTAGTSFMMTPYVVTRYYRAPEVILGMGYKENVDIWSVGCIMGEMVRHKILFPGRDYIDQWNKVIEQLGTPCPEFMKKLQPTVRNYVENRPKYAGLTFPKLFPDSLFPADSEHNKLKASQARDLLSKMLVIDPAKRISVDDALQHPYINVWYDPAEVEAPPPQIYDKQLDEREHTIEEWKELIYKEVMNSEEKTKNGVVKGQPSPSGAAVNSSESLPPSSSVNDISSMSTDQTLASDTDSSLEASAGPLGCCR
pIC50: −log10 of the molar value.

{"columns": ["molecule", "pIC50"],
 "data": [
  ["O=c1cc(-c2ccc(O)c(O)c2)oc2cc(O[C@@H]3O[C@H](CO)[C@@H](O)[C@H](O)[C@H]3O)cc(O)c12", 5.61],
  ["COc1c(O)cc2oc(-c3ccc(O)cc3)cc(=O)c2c1O", 4.46],
  ["COc1c(O)cc2oc(-c3ccc(O)cc3)c(O)c(=O)c2c1O", 4.65],
  ["COc1cc(-c2cc(=O)c3c(O)c(OC)c(O)cc3o2)ccc1O", 4.72],
  ["O=c1cc(-c2ccc(O)c(O)c2)oc2c([C@@H]3O[C@H](CO)[C@@H](O)[C@H](O)[C@H]3O)c(O)cc(O)c12 [Luteolin 8-C-glucoside]", 4.42],
  ["O=c1cc(-c2ccc(O)cc2)oc2cc(O)cc(O)c12", 5.66],
  ["C[C@@H]1O[C@@H](Oc2c(-c3ccc(O)c(O)c3)oc3cc(O)cc(=O)c-3c2O)[C@H](O)[C@H](O)[C@H]1O", 4.69],
  ["COc1ccc(-c2cc(=O)c3c(O)cc(O)cc3o2)cc1", 5.24],
  ["Oc1cc(O)c2c(c1)O[C@H](c1ccc(O)c(O)c1)[C@H](O)C2", 4.05]
]}

These entries and their values trace back to BindingDB's records for doi:10.1002/cbic.201000487.
